Target: 5-hydroxytryptamine receptor 1D (Homo sapiens, UniProt P28221)
Assay: Binding affinity against 5-HT1D receptor
Sequence (P28221 whole entry): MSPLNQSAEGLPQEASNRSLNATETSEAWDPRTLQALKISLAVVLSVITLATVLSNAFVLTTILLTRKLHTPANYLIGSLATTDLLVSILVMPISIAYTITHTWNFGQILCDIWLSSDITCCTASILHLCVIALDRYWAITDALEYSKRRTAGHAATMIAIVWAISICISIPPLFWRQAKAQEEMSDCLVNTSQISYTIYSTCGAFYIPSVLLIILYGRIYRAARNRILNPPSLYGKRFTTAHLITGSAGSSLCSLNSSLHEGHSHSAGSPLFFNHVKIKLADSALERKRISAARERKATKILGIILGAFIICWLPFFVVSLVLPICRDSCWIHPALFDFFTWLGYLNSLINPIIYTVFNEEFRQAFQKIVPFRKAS
pIC50: −log10 of the molar value.

| compound | assayed-target | pIC50 |
| --- | --- | --- |
| CN(C)CC1CC2c3cccnc3Cc3ccccc3N2O1 (stereo unspecified) | 5-hydroxytryptamine receptor 1D (Homo sapiens, UniProt P28221) | < 6.00 |

* * *

Molecular target: 5-hydroxytryptamine receptor 1D (Homo sapiens, UniProt P28221)
Experiment: Binding affinity against 5-hydroxytryptamine 1D receptor
Sequence (P28221 whole entry, looked up): as the sequence (P28221 whole entry) above
pIC50: −log10 of the molar value.
measured-property: pIC50

| compound | measured-property | number |
| --- | --- | --- |
| CN(C)CC1CC2c3cccnc3Cc3ccccc3N2O1 (stereo unspecified) | pIC50 | 6.04 |

* * *

What follows is a collection of IC50 values obtained with Histamine H1 receptor (Homo sapiens, UniProt P35367).
Sequence (P35367 whole entry): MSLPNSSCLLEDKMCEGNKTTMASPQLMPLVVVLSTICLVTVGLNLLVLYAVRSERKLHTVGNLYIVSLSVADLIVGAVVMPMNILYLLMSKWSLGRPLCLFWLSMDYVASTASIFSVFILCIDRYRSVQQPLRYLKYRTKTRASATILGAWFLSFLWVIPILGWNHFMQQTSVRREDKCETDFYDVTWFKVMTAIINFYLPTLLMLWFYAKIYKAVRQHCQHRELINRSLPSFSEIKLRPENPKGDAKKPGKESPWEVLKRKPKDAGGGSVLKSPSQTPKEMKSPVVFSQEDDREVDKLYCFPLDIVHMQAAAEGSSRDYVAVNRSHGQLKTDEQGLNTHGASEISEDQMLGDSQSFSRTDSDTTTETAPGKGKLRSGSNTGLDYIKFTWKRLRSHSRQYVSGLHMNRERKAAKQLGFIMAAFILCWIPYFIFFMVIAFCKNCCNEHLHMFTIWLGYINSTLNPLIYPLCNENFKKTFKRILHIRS

| compound | IC50, nM |
| --- | --- |
| CN(C)CC1CC2c3cccnc3Cc3ccccc3N2O1 (configuration not stated) | 16.6 |
| CN(C)CC1CC2c3ccccc3Cc3ccc(Cl)cc3N2O1 (configuration not stated) | 2.34 |

* * *

What follows is a collection of pIC50 values obtained with D(3) dopamine receptor (Homo sapiens, UniProt P35462).
Sequence (P35462 whole entry): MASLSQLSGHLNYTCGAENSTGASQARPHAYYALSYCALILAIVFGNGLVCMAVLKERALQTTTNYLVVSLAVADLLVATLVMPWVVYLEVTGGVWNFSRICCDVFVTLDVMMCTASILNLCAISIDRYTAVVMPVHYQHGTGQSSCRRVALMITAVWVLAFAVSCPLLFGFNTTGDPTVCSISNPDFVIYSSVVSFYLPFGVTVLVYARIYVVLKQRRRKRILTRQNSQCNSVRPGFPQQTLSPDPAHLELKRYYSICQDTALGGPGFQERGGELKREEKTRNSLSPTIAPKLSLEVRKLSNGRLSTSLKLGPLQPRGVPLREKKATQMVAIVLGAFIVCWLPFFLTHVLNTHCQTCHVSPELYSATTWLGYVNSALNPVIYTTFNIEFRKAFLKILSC
pIC50: −log10 of the molar value.
measured-property: pIC50

| compound | measured-property | qual | number |
| --- | --- | --- | --- |
| CN(C)CC1CC2c3cccnc3Cc3ccccc3N2O1 (configuration not stated) | pIC50 | < | 6.00 |
| CN(C)CC1CC2c3ccccc3Cc3ccncc3N2O1 (configuration not stated) | pIC50 | = | 5.78 |

* * *

Biological target: 5-hydroxytryptamine receptor 1A (Homo sapiens, UniProt P08908)
Sequence (P08908 whole entry): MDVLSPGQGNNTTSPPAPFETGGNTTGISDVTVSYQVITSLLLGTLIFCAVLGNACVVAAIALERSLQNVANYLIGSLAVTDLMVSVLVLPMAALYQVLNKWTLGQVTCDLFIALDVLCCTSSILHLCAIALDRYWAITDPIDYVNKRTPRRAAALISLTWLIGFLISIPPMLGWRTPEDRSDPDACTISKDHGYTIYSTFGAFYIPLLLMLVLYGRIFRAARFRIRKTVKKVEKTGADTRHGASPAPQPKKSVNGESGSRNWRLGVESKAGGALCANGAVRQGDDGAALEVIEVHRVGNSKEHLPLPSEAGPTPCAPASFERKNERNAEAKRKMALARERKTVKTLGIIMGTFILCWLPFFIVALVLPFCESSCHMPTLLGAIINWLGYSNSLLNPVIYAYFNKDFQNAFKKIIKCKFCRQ
pIC50: −log10 of the molar value.

| compound | pIC50 |
| --- | --- |
| CN(C)CC1CC2c3cccnc3Cc3ccccc3N2O1 (stereo unspecified) | < 6.00 |

* * *

Molecular target: 5-hydroxytryptamine receptor 2A (Homo sapiens)
Sequence (P28223 whole entry): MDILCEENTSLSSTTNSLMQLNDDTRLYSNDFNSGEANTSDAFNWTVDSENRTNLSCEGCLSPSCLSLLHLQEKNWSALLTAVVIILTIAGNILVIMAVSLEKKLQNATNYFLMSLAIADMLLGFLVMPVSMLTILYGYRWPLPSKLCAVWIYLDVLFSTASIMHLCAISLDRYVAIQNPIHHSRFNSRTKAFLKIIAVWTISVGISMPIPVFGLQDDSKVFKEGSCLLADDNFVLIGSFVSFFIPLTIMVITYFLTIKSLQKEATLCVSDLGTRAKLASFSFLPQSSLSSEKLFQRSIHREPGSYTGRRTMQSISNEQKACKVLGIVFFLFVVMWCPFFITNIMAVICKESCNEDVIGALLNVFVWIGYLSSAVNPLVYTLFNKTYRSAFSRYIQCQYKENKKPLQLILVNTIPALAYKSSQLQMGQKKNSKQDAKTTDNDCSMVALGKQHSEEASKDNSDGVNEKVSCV
Test: Binding affinity against 5-HT2A receptor
pIC50: −log10 of the molar value.

| compound | pIC50 |
| --- | --- |
| CN(C)CC1CC2c3cccnc3Cc3ccccc3N2O1 (stereo unspecified) | < 6.00 |

* * *

Target: Alpha-1A adrenergic receptor (Homo sapiens, UniProt P35348)
Sequence (P35348 whole entry): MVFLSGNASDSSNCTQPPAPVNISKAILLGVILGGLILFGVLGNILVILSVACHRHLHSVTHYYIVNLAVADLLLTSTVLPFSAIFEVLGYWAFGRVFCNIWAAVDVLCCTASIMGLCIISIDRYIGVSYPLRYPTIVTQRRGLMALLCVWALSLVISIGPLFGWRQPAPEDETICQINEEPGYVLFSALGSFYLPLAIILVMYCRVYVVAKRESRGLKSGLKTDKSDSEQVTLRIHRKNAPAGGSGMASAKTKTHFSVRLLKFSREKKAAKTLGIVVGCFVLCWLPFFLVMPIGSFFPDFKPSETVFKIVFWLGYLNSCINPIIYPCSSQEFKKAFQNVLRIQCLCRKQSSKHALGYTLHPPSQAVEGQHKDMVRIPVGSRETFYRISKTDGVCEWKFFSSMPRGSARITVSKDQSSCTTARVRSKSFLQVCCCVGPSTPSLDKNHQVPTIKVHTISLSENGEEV
pIC50: −log10 of the molar value.
measured-property: pIC50

| molecule | result |
| --- | --- |
| CN(C)CC1CC2c3cccnc3Cc3ccccc3N2O1 (stereo unspecified) | < 6.00 |

* * *

Entries and their ED50 values follow.
System: Mus musculus
Assay: Activity in mCPP challenge test, disinhibition measurement after sc administration
Format: functional

| compound | assayed-target | units-text | qual | ED50 |
| --- | --- | --- | --- | --- |
| CN(C)CC1CC2c3ccccc3Cc3ccccc3N2O1 (centres undefined) | Mus musculus | mg/kg | = | 0.01 |
| CN(C)CC1CC2c3ccccc3Cc3ccc(Cl)cc3N2O1 (centres undefined) | Mus musculus | mg/kg | = | 0.16 |
| CN(C)CC1CC2c3ccccc3Cc3ccncc3N2O1 (centres undefined) | Mus musculus | mg/kg | = | 0.16 |
| CN(C)CC1CC2c3cccnc3Cc3ccccc3N2O1 (centres undefined) | Mus musculus | mg/kg | < | 2.5 |

* * *

Entries and their IC50 values follow.
Sequence of the target: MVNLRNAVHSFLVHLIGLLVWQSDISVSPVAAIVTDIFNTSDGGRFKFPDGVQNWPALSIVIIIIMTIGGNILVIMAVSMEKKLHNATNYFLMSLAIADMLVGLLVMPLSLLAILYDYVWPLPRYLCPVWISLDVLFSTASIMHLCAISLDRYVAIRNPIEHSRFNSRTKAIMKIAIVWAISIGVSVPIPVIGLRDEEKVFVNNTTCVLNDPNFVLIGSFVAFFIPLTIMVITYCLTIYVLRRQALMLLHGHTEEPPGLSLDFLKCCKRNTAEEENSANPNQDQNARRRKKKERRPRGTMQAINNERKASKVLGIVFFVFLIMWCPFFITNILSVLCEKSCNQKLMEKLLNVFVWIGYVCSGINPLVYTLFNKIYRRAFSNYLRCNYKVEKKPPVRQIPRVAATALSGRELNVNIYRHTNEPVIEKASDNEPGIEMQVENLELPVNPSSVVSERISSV
measured-property: IC50 (nM)

| compound | number |
| --- | --- |
| CN(C)CC1CC2c3ccccc3Cc3ccncc3N2O1 (configuration not stated) | 12.6 |
| CN(C)CC1CC2c3ccccc3Cc3ccc(Cl)cc3N2O1 (configuration not stated) | 1.05 |
